Assay: A CellTox Green Cytotoxicity Assay to monitor cytotoxicity in HEK293 cells - 8 hour (AID 1224884); note: % is set by controls: 0 for no effect and ±100 for the full control effect; nearly all actives have a fitted effect of over 35% in size
Settings: CellTox Green fluorescence; series mostly up to 76.8 µM
Results filed as inconclusive are left out. Active and inactive are the calls of the source. Calls come from the whole dose curve; as a rule, active = well fitted activation curve with a large enough effect in the repeat runs; inconclusive = weak or mixed curves; inactive = flat fitted curve, though single readings scatter.
PARAMETER: cytotoxicity increase

{"MOLECULE": "CCCCS", "TEST_RESULT": "inactive"}
{"MOLECULE": "Cc1cc(O)c(Cl)cc1C", "TEST_RESULT": "inactive"}
{"MOLECULE": "O=C(OOC(=O)c1ccccc1)c1ccccc1", "TEST_RESULT": "inactive"}
{"MOLECULE": "CO/N=C(\\C(=O)O)c1csc(NC(=O)CCl)n1", "TEST_RESULT": "inactive"}
{"MOLECULE": "Cc1ccc2cccnc2c1", "TEST_RESULT": "inactive"}
{"MOLECULE": "CC(C)(C)OC(=O)c1ccccc1C(=O)O", "TEST_RESULT": "inactive"}
{"MOLECULE": "Cc1ccccc1OCC(=O)O", "TEST_RESULT": "inactive"}
{"MOLECULE": "CCCCC(O)/C=C(C)/C=C/C=C/C(=O)N1CCCC1=O (centres undefined)", "TEST_RESULT": "inactive"}
{"MOLECULE": "C[C@@H]1CC[C@@]2(OC1)O[C@H]1C[C@H]3[C@@H]4CC[C@H]5C[C@@H](O)CC[C@]5(C)[C@H]4CC(=O)[C@]3(C)[C@H]1[C@@H]2C", "TEST_RESULT": "-0.568% [at 6.97 µM] (inactive)"}

* * *

Assay: qHTS assay to identify small molecule antagonists of the estrogen receptor alpha (ER-alpha) signaling pathway - cell viability counter screen (AID 743074);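 note: HEK293 cells carrying ER-alpha-UAS-bla reporter stimulated with 17beta-estradiol; % is set by controls: 0 for no effect and ±100 for the full control effect; nearly all actives have a fitted effect of over 45% in size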
Conditions: ERalpha-bla HEK293 viability, CellTiter-Glo luminescence, 18 h; series mostly up to 69.4 µM
Records with an inconclusive call do not appear. Active and inactive are the calls of the source. Calls come from the whole dose curve.
PARAMETER: activity, negative = cytotoxicity

{"MOLECULE": "N#CC1(N)CCCCC1", "TEST_RESULT": "inactive"}
{"MOLECULE": "CCCCCCCOC(C)=O", "TEST_RESULT": "inactive"}
{"MOLECULE": "COc1cnc(NS(=O)(=O)c2ccc(N)cc2)nc1", "TEST_RESULT": "inactive"}
{"MOLECULE": "CC(O)CCCCn1c(=O)c2c(ncn2C)n(C)c1=O (centres undefined)", "TEST_RESULT": "inactive"}

* * *

Test: qHTS assay to identify small molecule agonists of the retinoic acid receptor (RAR) signaling pathway (AID 1159553); for activation: % is set by controls: 0 for no effect and ±100 for the full control effect
Settings: C3RL4 RARE luciferase reporter, agonist, 6 h; series mostly up to 73.3 µM
Records with an inconclusive call do not appear. Activity calls are given as the source filed them. The call rests on the fitted dose curve; in most records, active means well fitted activation curve with a large enough effect in the repeat runs; inconclusive means weak or mixed curves, or effect the other way; inactive means no such curve, though single readings can be large or run the other way.
Possible outcomes: active, inactive

{"COMPOUND": "CC(C)CC(O)Cc1ccccc1 (configuration not stated)", "CATEGORY": "inactive"}
{"COMPOUND": "CN(C)c1cc(NC(=O)CNC(C)(C)C)c(O)c2c1C[C@H]1C[C@H]3[C@H](N(C)C)C(=O)C(C(N)=O)=C(O)[C@@]3(O)C(=O)C1=C2O", "CATEGORY": "inactive"}
{"COMPOUND": "Cc1nnc(C(=O)NC(C)(C)c2nc(C(=O)NCc3ccc(F)cc3)c(O)c(=O)n2C)o1", "CATEGORY": "active"}
{"COMPOUND": "Cc1ccc2ccccc2n1", "CATEGORY": "inactive"}
{"COMPOUND": "Clc1ccc2c(c1)Nc1ccccc1S2", "CATEGORY": "inactive"}
{"COMPOUND": "O=CN1CCCCC1", "CATEGORY": "inactive"}
{"COMPOUND": "Cc1cc2c(cc1CC(=O)c1sccc1S(=O)(=O)Nc1onc(C)c1Cl)OCO2", "CATEGORY": "inactive"}
{"COMPOUND": "CN(C)c1ccncc1", "CATEGORY": "inactive"}
{"COMPOUND": "CC(=O)OCC(=O)[C@@]1(O)CC[C@H]2[C@@H]3CCC4=CC(=O)C=C[C@]4(C)[C@H]3[C@@H](O)C[C@@]21C", "CATEGORY": "inactive"}
{"COMPOUND": "C=CCn1cc[n+](C)c1", "CATEGORY": "inactive"}
{"COMPOUND": "CN(C)CCc1c[nH]c2ccc(CS(=O)(=O)N3CCCC3)cc12", "CATEGORY": "inactive"}
{"COMPOUND": "Cc1ccccc1OCC(=O)O", "CATEGORY": "inactive"}

* * *

Test: qHTS assay for small molecule agonists of the p53 signaling pathway - cell viability (AID 651633);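 note: p53RE-bla HCT reporter cells with a stable beta-lactamase p53 reporter; % is set by controls: 0 for no effect and ±100 for the full control effect; nearly all actives have a fitted effect of over 30% in size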
Conditions: p53RE-bla HCT-116 viability, ATP luminescence, 16 h; series mostly up to 83.3 µM
Records with an inconclusive call do not appear. The source made the active and inactive calls. The call rests on the fitted dose curve.
PARAMETER: activity change, negative = cytotoxicity

{"COMPOUND": "CCCCOCCCC", "PARAMETER": "activity change, negative = cytotoxicity", "TEST_RESULT": "inactive"}
{"COMPOUND": "CCCCCCCCCCCCCCCCN(C)C", "PARAMETER": "activity change, negative = cytotoxicity", "TEST_RESULT": "8.53% [at 8.08 µM] (inactive)"}
{"COMPOUND": "CCCCC(CC)COC(=O)CC#N (stereo unspecified)", "PARAMETER": "activity change, negative = cytotoxicity", "TEST_RESULT": "inactive"}
{"COMPOUND": "Clc1cc(Cl)c(Cl)c(Cl)c1Cl", "PARAMETER": "activity change, negative = cytotoxicity", "TEST_RESULT": "inactive"}
{"COMPOUND": "Nc1cc(S(=O)(=O)O)ccc1O", "PARAMETER": "activity change, negative = cytotoxicity", "TEST_RESULT": "inactive"}
{"COMPOUND": "O=S(=O)(O)CC(O)CCl (stereo unspecified)", "PARAMETER": "activity change, negative = cytotoxicity", "TEST_RESULT": "inactive"}
{"COMPOUND": "CCC(=O)OCCOc1ccccc1", "PARAMETER": "activity change, negative = cytotoxicity", "TEST_RESULT": "inactive"}
{"COMPOUND": "CN(C)CCC[C@@]1(c2ccc(F)cc2)OCc2cc(C#N)ccc21", "PARAMETER": "activity change, negative = cytotoxicity", "TEST_RESULT": "inactive"}
{"COMPOUND": "C=CCCCCCCCCOC(C)=O", "PARAMETER": "activity change, negative = cytotoxicity", "TEST_RESULT": "inactive"}
{"COMPOUND": "CCCCCC(CC)OC(=O)CCCOc1ccc(Cl)cc1Cl (stereo unspecified)", "PARAMETER": "activity change, negative = cytotoxicity", "TEST_RESULT": "inactive"}
{"COMPOUND": "CC(C)(C)c1ccc(N)cc1", "PARAMETER": "activity change, negative = cytotoxicity", "TEST_RESULT": "inactive"}
{"COMPOUND": "CC(=O)Oc1ccc(C(C)=O)cc1", "PARAMETER": "activity change, negative = cytotoxicity", "TEST_RESULT": "inactive"}
{"COMPOUND": "CC(C)(O)c1ccc(C(C)(C)O)cc1", "PARAMETER": "activity change, negative = cytotoxicity", "TEST_RESULT": "inactive"}
{"COMPOUND": "NS(=O)(=O)c1cc2c(cc1C(F)(F)F)NCNS2(=O)=O", "PARAMETER": "activity change, negative = cytotoxicity", "TEST_RESULT": "inactive"}
{"COMPOUND": "Cc1ccc2ccccc2n1", "PARAMETER": "activity change, negative = cytotoxicity", "TEST_RESULT": "inactive"}
{"COMPOUND": "CCCCNCC", "PARAMETER": "activity change, negative = cytotoxicity", "TEST_RESULT": "inactive"}

* * *

Experiment: A CellTox Green Cytotoxicity Assay to monitor cytotoxicity in HEK293 cells - 24 hour (AID 1224875); note: % is set by controls: 0 for no effect and ±100 for the full control effect; nearly all actives have a fitted effect of over 45% in size
Settings: CellTox Green fluorescence; series mostly up to 76.8 µM
Description: National Center for Advancing Translational Sciences [NCATS] NIH Chemical Genomics Center [NCGC] U.S. Environmental Protection Agency [EPA] National Institutes of Environmental Health Sciences [NIEHS] National Toxicology Program [NTP] Cell-based models are critical for drug discovery. […] Viable cells produce no appreciable increases in fluorescence. Therefore, the fluorescence signal produced by the binding interaction with dead cell DNA is proportional to cytotoxicity. […]
Results filed as inconclusive are left out. Active and inactive are the calls of the source. Calls follow the shape of the dose curve; as a rule, active = well fitted activation curve with a large enough effect in the repeat runs; inconclusive = weak or mixed curves; inactive = flat fitted curve, though single readings scatter.

{"MOLECULE": "COC(=O)c1ccc(NC(C)=O)cc1OC", "activity change": "inactive"}
{"MOLECULE": "O=C(O)CCCCCCCCCC(=O)O", "activity change": "inactive"}
{"MOLECULE": "CCCCN1C(=O)c2ccccc2C1=O", "activity change": "inactive"}
{"MOLECULE": "CC1(C)CC(N)CC(C)(C)N1", "activity change": "inactive"}
{"MOLECULE": "CCCC(C)C(O)CC (stereo not drawn)", "activity change": "inactive"}
{"MOLECULE": "CNC(=O)c1c(I)c(NC(C)=O)c(I)c(C(=O)O)c1I", "activity change": "inactive"}
{"MOLECULE": "CN1CCN(C(=O)C2CCCCC2)CC1", "activity change": "inactive"}
{"MOLECULE": "CC(=O)Nc1ccc(S(=O)(=O)Nc2cc(C)on2)cc1", "activity change": "inactive"}
{"MOLECULE": "CN(C)c1cc(NC(=O)CNC(C)(C)C)c(O)c2c1C[C@H]1C[C@H]3[C@H](N(C)C)C(=O)C(C(N)=O)=C(O)[C@@]3(O)C(=O)C1=C2O", "activity change": "inactive"}
{"MOLECULE": "C=CCN1CCc2nc(N)sc2CC1", "activity change": "inactive"}
{"MOLECULE": "CCOCCOCCOC(C)=O", "activity change": "inactive"}
{"MOLECULE": "CC(C)c1cc(C(C)C)cc(C(C)C)c1", "activity change": "inactive"}
{"MOLECULE": "Nc1nc(Cl)cc(Cl)n1", "activity change": "inactive"}
